Values from patent US11479555B2

- PROTOCOL SUMMARY: Mice CNS PK study
- Type: in vivo
- CONDITION SET: CD-1 mouse, brain
The following compounds are shown together with reported Brain AUClast values.
VALUE TYPE: Brain AUClast

{"COMPOUND": "CC(C)n1c(=O)c2cnc(Nc3ccc(N4CCN(C)CC4)cc3)nc2n1-c1cccc(C(C)(C)C(F)(F)F)n1", "RESULT": "12,002 h*ng/mL"}
{"COMPOUND": "CC(C)n1c(=O)c2cnc(Nc3ccc(N4CCN(C)CC4)cc3)nc2n1-c1cccc(C2CC2)n1", "RESULT": "4,910 h*ng/mL"}
{"COMPOUND": "C=CCn1c(=O)c2cnc(Nc3ccc(N4CCN(C)CC4)cc3)nc2n1-c1cccc(C(C)(C)O)n1 [AZD1775, reference compound]", "RESULT": "524 ng·h/mL"}
{"COMPOUND": "CC(C)n1c(=O)c2cnc(Nc3ccc(N4CCN(C)CC4)cc3)nc2n1-c1cccc(C(C)(C)F)n1", "RESULT": "11,907 h*ng/mL"}
